test system: pathogens of clinical samples; experiment: Molecular phenotypic antimicrobial susceptibility test of clinical samples, direct PCR without a separate DNA purification step (Table 6); type: cell-based; conditions: E. faecalis, clinical sample of r100-r106, Ct control avg 21.027
Classification field: enter class 1 for Ct values not below 30, class 0 for values below it.

Previously resolved entries follow.
molecule	answerLabel
O=C1CN(/N=C/c2ccc([N+](=O)[O-])o2)C(=O)N1 [Nitrofurantoin]	class 1
C[C@H]1COc2c(N3CCN(C)CC3)c(F)cc3c(=O)c(C(=O)O)cn1c23 [Levofloxacin]	class 1
CN[C@H](CC(C)C)C(=O)N[C@H]1C(=O)N[C@@H](CC(N)=O)C(=O)N[C@H]2C(=O)N[C@H]3C(=O)N[C@H](C(=O)N[C@H](C(=O)O)c4cc(O)cc(O)c4-c4cc3ccc4O)[C@H](O)c3ccc(c(Cl)c3)Oc3cc2cc(c3O[C@@H]2O[C@H](CO)[C@@H](O)[C@H](O)[C@H]2O[C@H]2C[C@](C)(N)[C@H](O)[C@H](C)O2)Oc2ccc(cc2Cl)[C@H]1O [Vancomycin]	class 1
CC1(C)S[C@@H]2[C@H](NC(=O)[C@H](N)c3ccccc3)C(=O)N2[C@H]1C(=O)O [Ampicillin]	class 1
C[C@@H]1O[C@@H]1P(=O)(O)O [Fosfomycin]	class 1

Proceed to the following item.
Does the molecule CN(C)[C@@H]1C(O)=C(C(N)=O)C(=O)[C@@]2(O)C(O)=C3C(=O)c4c(O)cccc4[C@@](C)(O)[C@H]3C[C@@H]12 [Tetracycline] have recorded Ct that is 30 or more?
class 0

---

system: Escherichia coli; assay: Traditional culture-based antimicrobial susceptibility test; type: cell-based; conditions: E. coli #1 - WDCM 00090 - 6.2×E3
observationType: Traditional Culture Results

> print(dat)
                                   molecule  valuereported
1  Cc1nnc(SCC2=C(C(=O)O)N3C(=O)[C@@H](NC(=O)Cn4cnnn4)[C@H]3SC2)s1 [Cefazolin]      Sensitive
2  CC1(C)S[C@@H]2[C@H](NC(=O)[C@H](N)c3ccccc3)C(=O)N2[C@H]1C(=O)O [Ampicillin]      Sensitive
3    C[C@@H]1O[C@@H]1P(=O)(O)O [Fosfomycin]      Sensitive
4  CO/N=C(\C(=O)N[C@@H]1C(=O)N2C(C(=O)O)=C(CSc3nc(=O)c(=O)[nH]n3C)CS[C@H]12)c1csc(N)n1 [Ceftriaxone]      Sensitive

---

tested on: pathogens of clinical samples; test: Molecular phenotypic antimicrobial susceptibility test of clinical samples, extraction DNA purification step prior to PCR (Table 6); type: cell-based; conditions: E. coli, clinical sample of r10-r24
observationType: Molecular Antibiotic Susceptibility Result

> print(dat)
                                   compound  valuereported
1  C[C@H]1COc2c(N3CCN(C)CC3)c(F)cc3c(=O)c(C(=O)O)cn1c23 [Levofloxacin]      Resistant
2  CC1(C)S[C@@H]2[C@H](NC(=O)[C@H](N)c3ccccc3)C(=O)N2[C@H]1C(=O)O [Ampicillin]      Resistant

---

tested on: E. coli; test: Molecular phenotypic antimicrobial susceptibility test with direct PCR (no extraction DNA purification step); assay type: cell-based, Escherichia coli; conditions: E. coli isolate JJ1887; direct PCR; at sensitive breakpoint
observationType: Molecular Antimicrobial Susceptibility Result

> print(dat)
                                querysmiles  targetentity  valuereported
1  C[C@H]1COc2c(N3CCN(C)CC3)c(F)cc3c(=O)c(C(=O)O)cn1c23       E. coli      Resistant
2  O=C(O)c1cn(C2CC2)c2cc(N3CCNCC3)c(F)cc2c1=O       E. coli      Resistant
3  Cc1nnc(SCC2=C(C(=O)O)N3C(=O)[C@@H](NC(=O)Cn4cnnn4)[C@H]3SC2)s1       E. coli      Resistant

---

tested on: E. coli; assay: Molecular phenotypic antimicrobial susceptibility test with direct PCR (no extraction DNA purification step); assay type: cell-based, Escherichia coli; settings: E. coli isolate JJ1887; direct PCR; at sensitive breakpoint
observationType: Molecular Antimicrobial Susceptibility Result

> print(dat)
                                   compound  valuereported
1  CO/N=C(\C(=O)N[C@@H]1C(=O)N2C(C(=O)O)=C(CSc3nc(=O)c(=O)[nH]n3C)CS[C@H]12)c1csc(N)n1      Resistant
2  CC1(C)S[C@@H]2[C@H](NC(=O)[C@H](N)c3ccccc3)C(=O)N2[C@H]1C(=O)O      Resistant
3  CO/N=C(\C(=O)N[C@@H]1C(=O)N2C(C(=O)[O-])=C(C[N+]3(C)CCCC3)CS[C@H]12)c1csc(N)n1 [Cefepime]      Resistant

---

system: E. coli; test: Molecular phenotypic antimicrobial susceptibility test with direct PCR (no extraction DNA purification step); assay type: cell-based, Escherichia coli; details: E. coli #1 - WDCM 00090 - 6.2×E3; specimen with <10,000 cells/mL; direct PCR after 16 hours of incubation; Ct at control 13.787
Ct at Sensitive Breakpoint by entry:
Would you mind answering with just the numeric figure?

Answered examples (5):
> print(dat)
                                querysmiles  targetentity             observationtype  valuereported
1  C[C@H]1c2cccc(O)c2C(=O)C2=C(O)[C@]3(O)C(=O)C(C(N)=O)=C(O)[C@@H](N(C)C)[C@@H]3[C@@H](O)[C@@H]21       E. coli  Ct at Sensitive Breakpoint          25.83
2  O=C1CN(/N=C/c2ccc([N+](=O)[O-])o2)C(=O)N1       E. coli  Ct at Sensitive Breakpoint          27.90
3  CO/N=C(\C(=O)N[C@@H]1C(=O)N2C(C(=O)O)=C(CSc3nc(=O)c(=O)[nH]n3C)CS[C@H]12)c1csc(N)n1       E. coli  Ct at Sensitive Breakpoint          26.31
4  Cc1nnc(SCC2=C(C(=O)O)N3C(=O)[C@@H](NC(=O)Cn4cnnn4)[C@H]3SC2)s1       E. coli  Ct at Sensitive Breakpoint          25.72
5  CC1(C)S[C@@H]2[C@H](NC(=O)[C@H](N)c3ccccc3)C(=O)N2[C@H]1C(=O)O       E. coli  Ct at Sensitive Breakpoint          25.93

Consider the molecule shown here: C[C@@H]1O[C@@H]1P(=O)(O)O What is its recorded Ct at Sensitive Breakpoint?
27.59

---

The following molecules are listed with their measured Ct at Sensitive Breakpoint values.
tested on: pathogen of the specimen; experiment: Molecular phenotypic antimicrobial susceptibility test with direct PCR at various incubation timepoints (Table 7); assay type: cell-based; conditions: E. coli isolate 1189, antibiotic incubation time 14 hours, control average Ct 15.826

# annotated cases, reported Ct at Sensitive Breakpoint shown
> print(dat)
                                   molecule              targetentity  valuereported
1  O=C(O)c1cn(C2CC2)c2cc(N3CCNCC3)c(F)cc2c1=O [Ciprofloxacin]  pathogen of the specimen         27.128
2  CC1(C)S[C@@H]2[C@H](NC(=O)[C@H](N)c3ccccc3)C(=O)N2[C@H]1C(=O)O [Ampicillin]  pathogen of the specimen         15.465
3  O=C1CN(/N=C/c2ccc([N+](=O)[O-])o2)C(=O)N1 [Nitrofurantoin]  pathogen of the specimen         26.788
4  C[C@H]1COc2c(N3CCN(C)CC3)c(F)cc3c(=O)c(C(=O)O)cn1c23 [Levofloxacin]  pathogen of the specimen         27.545
5  CO/N=C(\C(=O)N[C@@H]1C(=O)N2C(C(=O)[O-])=C(C[N+]3(C)CCCC3)CS[C@H]12)c1csc(N)n1 [Cefepime]  pathogen of the specimen         22.420

// lookup Ct at Sensitive Breakpoint for Cc1nnc(SCC2=C(C(=O)O)N3C(=O)[C@@H](NC(=O)Cn4cnnn4)[C@H]3SC2)s1 [Cefazolin]
17.599

Subsequent entry: CO/N=C(\C(=O)N[C@@H]1C(=O)N2C(C(=O)O)=C(CSc3nc(=O)c(=O)[nH]n3C)CS[C@H]12)c1csc(N)n1 [Ceftriaxone]
14.724

How about this molecule: C[C@@H](O)[C@H]1C(=O)N2C(C(=O)O)=C(S[C@@H]3CN[C@H](C(=O)N(C)C)C3)[C@H](C)[C@H]12 [Meropenem]
26.211

Then this molecule: CO[C@@]1(NC(=O)Cc2cccs2)C(=O)N2C(C(=O)O)=C(COC(N)=O)CS[C@@H]21 [Cefoxitin]
15.333

---

tested on: pathogens of clinical samples; experiment: Molecular phenotypic antimicrobial susceptibility test of clinical samples, direct PCR without a separate DNA purification step (Table 6); type: cell-based; details: E. coli, clinical sample of r158-r172, Ct control avg 12.894
Documented Ct across a set of molecules

Can you look up the measured Ct of O=C1CN(/N=C/c2ccc([N+](=O)[O-])o2)C(=O)N1 for me?
27.377

Moving on to C[C@@H]1O[C@@H]1P(=O)(O)O
27.932

Similarly, C[C@H]1COc2c(N3CCN(C)CC3)c(F)cc3c(=O)c(C(=O)O)cn1c23 ?
29.603

Do the same for CO[C@@]1(NC(=O)Cc2cccs2)C(=O)N2C(C(=O)O)=C(COC(N)=O)CS[C@@H]21 please
29.986

Entry CN(C)[C@@H]1C(O)=C(C(N)=O)C(=O)[C@@]2(O)C(O)=C3C(=O)c4c(O)cccc4[C@@](C)(O)[C@H]3C[C@@H]12 please
30.717

Please give the result for C[C@@H](O)[C@H]1C(=O)N2C(C(=O)O)=C(S[C@@H]3CN[C@H](C(=O)N(C)C)C3)[C@H](C)[C@H]12 too.
30.093

Repeat for the following molecule: CC1(C)S[C@@H]2[C@H](NC(=O)[C@H](N)c3ccccc3)C(=O)N2[C@H]1C(=O)O
28.274

Same thing, different molecule: CO/N=C(\C(=O)N[C@@H]1C(=O)N2C(C(=O)O)=C(CSc3nc(=O)c(=O)[nH]n3C)CS[C@H]12)c1csc(N)n1
30.396
